Entries and their GI50 values follow.
- Test system: OVCAR-5
- assay.remarks: NCI tumour cell line growth inhibition, 48 h
Calls of active or inactive are those of the source. Cut-off read from the data, not from the text of the source: active = GI50 up to about 1.1 µM and inactive = higher.

>  <molecule>
COc1cc(OCc2ccc3nc(-c4ccccc4)c(Cl)nc3c2)cc(OC)c1OC

>  <GI50>
77.1 µM (inactive)

$$$$
>  <molecule>
Cc1nnc2sc(NN)nn12

>  <GI50>
> 100 µM (inactive)

$$$$
>  <molecule>
Cc1cccc(C)c1NC(=O)C(=O)Nn1c(NN)nc2ccccc2c1=O

>  <GI50>
> 100 µM (inactive)

$$$$
>  <molecule>
CC(NC(=O)c1ccc(Cl)c(Cl)c1)c1ccc(-c2ccccc2)cc1 (stereo not drawn)

>  <GI50>
44.9 µM (inactive)

$$$$
>  <molecule>
CC1=NN(C(=O)CC(=O)Nc2ccccc2)C(=O)C1/N=N/c1ccc(S(N)(=O)=O)cc1 (stereo not drawn)

>  <GI50>
> 100 µM (inactive)

$$$$
>  <molecule>
O=c1c2ccc(Cl)cc2oc2c(CNc3ccc(S(=O)(=O)Nc4ncccn4)cc3)cccc12

>  <GI50>
> 100 µM (inactive)

$$$$
>  <molecule>
Cc1cccc(NS(=O)(=O)c2ccc(/N=N/c3c(O)c(C(=O)O)cc4ccccc34)cc2)n1

>  <GI50>
> 100 µM (inactive)

$$$$
>  <molecule>
COC(=O)C1=C(O)c2cc(OC)c(OC)cc2C(c2ccc(OC)c(OC)c2)C1 (stereo not drawn)

>  <GI50>
> 100 µM (inactive)

$$$$
>  <molecule>
Cc1ccc(/C=N/NC2=NCCN2)s1

>  <GI50>
> 100 µM (inactive)

$$$$
>  <molecule>
c1cc2c(cc1[C@@H]1OC[C@@H]3[C@H]1CO[C@H]3c1ccc3c(c1)OCO3)OCO2

>  <GI50>
> 100 µM (inactive)

$$$$
>  <molecule>
COc1cccc(CCCNC(=O)Cc2ccccc2CO)c1

>  <GI50>
> 100 µM (inactive)

$$$$
>  <molecule>
COC(=O)/C=C(/C=C1/C(C#N)=C(N)N(c2ccc(Cl)cc2)C1(C)/C(=C/C(=O)OC)C(=O)OC)C(=O)OC (stereo not drawn)

>  <GI50>
> 100 µM (inactive)

$$$$
>  <molecule>
CSc1c2c(C)n[nH]c2nn1-c1ccccc1

>  <GI50>
> 100 µM (inactive)

$$$$
>  <molecule>
CC(C)(C)C1CCC2c3c([nH]c4ccccc34)C3C(=O)N(c4ccc(Br)cc4)C(=O)C3C2C1 (stereo not drawn)

>  <GI50>
23.6 µM (inactive)

$$$$
>  <molecule>
O=C1CCCc2ccc([N+](=O)[O-])c(O)c21

>  <GI50>
59.8 µM (inactive)

$$$$
>  <molecule>
O=S(=O)(O)c1ccc(-c2nnc(-c3ccccn3)nc2-c2ccc(S(=O)(=O)O)o2)o1

>  <GI50>
> 100 µM (inactive)

$$$$
>  <molecule>
N=C(N)NCCCC(Nc1c2ccccc2nc2ccccc12)C(=O)O (stereo not drawn)

>  <GI50>
> 100 µM (inactive)

$$$$
>  <molecule>
CC(=O)NC1C(OC(C)C(=O)NC(C(=O)NC(CCC(=O)NCCCNC2c3ccccc3Nc3cccc([N+](=O)[O-])c32)C(N)=O)C(C)C)C(O)C(CO)OC1(C)OCc1ccccc1 (stereo not drawn)

>  <GI50>
3.94 µM (inactive)

$$$$
>  <molecule>
CC(=O)OC(C(=O)O)C(OC(C)=O)C(OC(C)=O)C(OC(C)=O)C(=O)O (stereo not drawn)

>  <GI50>
> 100 µM (inactive)

$$$$
>  <molecule>
CSc1nc(-c2cc3c(c(SC)n2)CCC3)cc2c1CCC2

>  <GI50>
> 100 µM (inactive)

$$$$
>  <molecule>
C1=C(c2ccccc2)Nc2nnnn2C1c1ccccc1 (stereo not drawn)

>  <GI50>
93.3 µM (inactive)

$$$$
>  <molecule>
NNC(=O)C(O)C(O)C(O)CO (stereo not drawn)

>  <GI50>
> 100 µM (inactive)

$$$$
>  <molecule>
O=C(O)c1cc2ccccc2c(O)c1O

>  <GI50>
16.9 µM (inactive)

$$$$
>  <molecule>
Cn1c(SCc2ccc([N+](=O)[O-])cc2)nnc1C12CC3CC(CC(C3)C1)C2

>  <GI50>
> 10 µM (inactive)

$$$$
>  <molecule>
O=C(Nc1ccc(Cl)cc1)c1cc(S(=O)(=O)Nc2n[nH]c(Nc3ccc4ccccc4c3)n2)c(SSc2cc(Cl)c(C(=O)Nc3ccc(Cl)cc3)cc2S(=O)(=O)Nc2n[nH]c(Nc3ccc4ccccc4c3)n2)cc1Cl

>  <GI50>
20.5 µM (inactive)

$$$$
>  <molecule>
C=C(C(=O)OC)c1cc2ccccc2n1S(=O)(=O)c1ccccc1

>  <GI50>
5.68 µM (inactive)

$$$$
>  <molecule>
O=C1C2Cc3ccccc3CN2C(=O)N1CN1CCCCC1 (stereo not drawn)

>  <GI50>
> 100 µM (inactive)

$$$$
>  <molecule>
COc1ccc(C2SCC(=O)N2c2ccc(-n3c(-c4ccccc4)nc4ccccc4c3=O)cc2)cc1 (stereo not drawn)

>  <GI50>
> 100 µM (inactive)

$$$$
